# RUN CONDITIONS: in n-pentanol, 288.15 K
REPORTED ENDPOINT: solubility (mole fraction)

[[record]]
structure = "CC1(C)O[C@@H]2[C@@H](CO[C@@]3(COS(N)(=O)=O)OC(C)(C)O[C@@H]23)O1"
reported_endpoint = "solubility (mole fraction)"
numeric_result = 0.00601


====

# RUN CONDITIONS: in 2-ethoxyethanol, 293.15 K
REPORTED ENDPOINT: solubility (mole fraction)

[[record]]
structure = "CC1(C)O[C@@H]2[C@@H](CO[C@@]3(COS(N)(=O)=O)OC(C)(C)O[C@@H]23)O1"
numeric_result = 0.137


====

# RUN CONDITIONS: in 2-butoxyethanol, 298.15 K
REPORTED ENDPOINT: solubility (mole fraction)

[[record]]
structure = "CC1(C)O[C@@H]2[C@@H](CO[C@@]3(COS(N)(=O)=O)OC(C)(C)O[C@@H]23)O1"
numeric_result = 0.0849


====

# RUN CONDITIONS: in n-pentanol, 303.15 K
REPORTED ENDPOINT: solubility (mole fraction)

[[record]]
structure = "CC1(C)O[C@@H]2[C@@H](CO[C@@]3(COS(N)(=O)=O)OC(C)(C)O[C@@H]23)O1"
reported_endpoint = "solubility (mole fraction)"
numeric_result = 0.0126


====

# RUN CONDITIONS: in ethanol, 303.15 K
REPORTED ENDPOINT: solubility (mole fraction)

[[record]]
structure = "CC1(C)O[C@@H]2[C@@H](CO[C@@]3(COS(N)(=O)=O)OC(C)(C)O[C@@H]23)O1"
reported_endpoint = "solubility (mole fraction)"
result = 0.0478


====

# RUN CONDITIONS: in 2-butoxyethanol, 288.15 K
REPORTED ENDPOINT: solubility (mole fraction)

[[record]]
structure = "CC1(C)O[C@@H]2[C@@H](CO[C@@]3(COS(N)(=O)=O)OC(C)(C)O[C@@H]23)O1"
numeric_result = 0.0676


====

# RUN CONDITIONS: in n-hexanol, 283.15 K
REPORTED ENDPOINT: solubility (mole fraction)

[[record]]
structure = "CC1(C)O[C@@H]2[C@@H](CO[C@@]3(COS(N)(=O)=O)OC(C)(C)O[C@@H]23)O1"
reported_endpoint = "solubility (mole fraction)"
numeric_result = 0.00363


====

# RUN CONDITIONS: in 2-butoxyethanol, 308.15 K
REPORTED ENDPOINT: solubility (mole fraction)

[[record]]
structure = "CC1(C)O[C@@H]2[C@@H](CO[C@@]3(COS(N)(=O)=O)OC(C)(C)O[C@@H]23)O1"
reported_endpoint = "solubility (mole fraction)"
result = 0.111


====

# RUN CONDITIONS: in methanol, 288.15 K
REPORTED ENDPOINT: solubility (mole fraction)

[[record]]
structure = "CC1(C)O[C@@H]2[C@@H](CO[C@@]3(COS(N)(=O)=O)OC(C)(C)O[C@@H]23)O1"
reported_endpoint = "solubility (mole fraction)"
numeric_result = 0.0569


====

# RUN CONDITIONS: in 2-methoxyethanol, 288.15 K
REPORTED ENDPOINT: solubility (mole fraction)

[[record]]
structure = "CC1(C)O[C@@H]2[C@@H](CO[C@@]3(COS(N)(=O)=O)OC(C)(C)O[C@@H]23)O1"
numeric_result = 0.165


====

# RUN CONDITIONS: in n-pentanol, 318.15 K
REPORTED ENDPOINT: solubility (mole fraction)

[[record]]
structure = "CC1(C)O[C@@H]2[C@@H](CO[C@@]3(COS(N)(=O)=O)OC(C)(C)O[C@@H]23)O1"
reported_endpoint = "solubility (mole fraction)"
numeric_result = 0.0272


====

# RUN CONDITIONS: in n-butanol, 283.15 K
REPORTED ENDPOINT: solubility (mole fraction)

[[record]]
structure = "CC1(C)O[C@@H]2[C@@H](CO[C@@]3(COS(N)(=O)=O)OC(C)(C)O[C@@H]23)O1"
numeric_result = 0.00629


====

# RUN CONDITIONS: in methanol, 318.15 K
REPORTED ENDPOINT: solubility (mole fraction)

[[record]]
structure = "CC1(C)O[C@@H]2[C@@H](CO[C@@]3(COS(N)(=O)=O)OC(C)(C)O[C@@H]23)O1"
result = 0.148


====

# RUN CONDITIONS: in n-hexanol, 278.15 K
REPORTED ENDPOINT: solubility (mole fraction)

[[record]]
structure = "CC1(C)O[C@@H]2[C@@H](CO[C@@]3(COS(N)(=O)=O)OC(C)(C)O[C@@H]23)O1"
numeric_result = 0.0029


====

# RUN CONDITIONS: in n-hexanol, 323.15 K
REPORTED ENDPOINT: solubility (mole fraction)

[[record]]
structure = "CC1(C)O[C@@H]2[C@@H](CO[C@@]3(COS(N)(=O)=O)OC(C)(C)O[C@@H]23)O1"
reported_endpoint = "solubility (mole fraction)"
numeric_result = 0.0312


====

# RUN CONDITIONS: in n-butanol, 303.15 K
REPORTED ENDPOINT: solubility (mole fraction)

[[record]]
structure = "CC1(C)O[C@@H]2[C@@H](CO[C@@]3(COS(N)(=O)=O)OC(C)(C)O[C@@H]23)O1"
reported_endpoint = "solubility (mole fraction)"
numeric_result = 0.0172


====

# RUN CONDITIONS: in n-butanol, 278.15 K
REPORTED ENDPOINT: solubility (mole fraction)

[[record]]
structure = "CC1(C)O[C@@H]2[C@@H](CO[C@@]3(COS(N)(=O)=O)OC(C)(C)O[C@@H]23)O1"
numeric_result = 0.00495


====

# RUN CONDITIONS: in isopropanol, 288.15 K
REPORTED ENDPOINT: solubility (mole fraction)

[[record]]
structure = "CC1(C)O[C@@H]2[C@@H](CO[C@@]3(COS(N)(=O)=O)OC(C)(C)O[C@@H]23)O1"
numeric_result = 0.0106


====

# RUN CONDITIONS: in isopentanol, 278.15 K
REPORTED ENDPOINT: solubility (mole fraction)

[[record]]
structure = "CC1(C)O[C@@H]2[C@@H](CO[C@@]3(COS(N)(=O)=O)OC(C)(C)O[C@@H]23)O1"
reported_endpoint = "solubility (mole fraction)"
numeric_result = 0.00308


====

# RUN CONDITIONS: in methanol, 303.15 K
REPORTED ENDPOINT: solubility (mole fraction)

[[record]]
structure = "CC1(C)O[C@@H]2[C@@H](CO[C@@]3(COS(N)(=O)=O)OC(C)(C)O[C@@H]23)O1"
numeric_result = 0.0951


====

# RUN CONDITIONS: in isopropanol, 313.15 K
REPORTED ENDPOINT: solubility (mole fraction)

[[record]]
structure = "CC1(C)O[C@@H]2[C@@H](CO[C@@]3(COS(N)(=O)=O)OC(C)(C)O[C@@H]23)O1"
numeric_result = 0.0408


====

# RUN CONDITIONS: in isopentanol, 313.15 K
REPORTED ENDPOINT: solubility (mole fraction)

[[record]]
structure = "CC1(C)O[C@@H]2[C@@H](CO[C@@]3(COS(N)(=O)=O)OC(C)(C)O[C@@H]23)O1"
result = 0.0197


====

# RUN CONDITIONS: in n-propanol, 308.15 K
REPORTED ENDPOINT: solubility (mole fraction)

[[record]]
structure = "CC1(C)O[C@@H]2[C@@H](CO[C@@]3(COS(N)(=O)=O)OC(C)(C)O[C@@H]23)O1"
numeric_result = 0.0333


====

# RUN CONDITIONS: in n-pentanol, 283.15 K
REPORTED ENDPOINT: solubility (mole fraction)

[[record]]
structure = "CC1(C)O[C@@H]2[C@@H](CO[C@@]3(COS(N)(=O)=O)OC(C)(C)O[C@@H]23)O1"
numeric_result = 0.00472

